Test system: Influenza B/Harbin/7/95
Type: cell-based
condition_description: concentration that inhibited CPE by 50%; MDCK cells, up to 72 hours, MTT
assay_metric: ID50 B/Harbin/7/95 (ng/mL)
State just the number; it will be interpreted in ng/mL.

Example results:
CC(=O)N[C@@H]1C(N=C(N)N)C=C(C(=O)O)O[C@H]1[C@H](O)[C@H](O)CO (single isomer, unassigned) [Compound A, reference compound]: 13
CC(=O)N[C@H]1[C@H]([C@H](OC(=O)NCCCNC(=O)c2ccccc2C(=O)NCCCNC(=O)O[C@@H]([C@@H]2OC(C(=O)O)=C[C@H](NC(=N)N)[C@H]2NC(C)=O)[C@H](O)CO)[C@H](O)CO)OC(C(=O)O)=C[C@@H]1NC(=N)N: 0.1
CC(=O)N[C@H]1[C@H]([C@H](OC(=O)NCCCCCCNC(=O)c2cccc(C(=O)NCCCCCCNC(=O)O[C@@H]([C@@H]3OC(C(=O)O)=C[C@H](NC(=N)N)[C@H]3NC(C)=O)[C@H](O)CO)c2)[C@H](O)CO)OC(C(=O)O)=C[C@@H]1NC(=N)N: 0.9

Attention now shifts to the item below.
Ask: Report ID50 B/Harbin/7/95 for CC(=O)N[C@H]1[C@H]([C@H](OC(=O)NCCCNC(=O)c2cccc(C(=O)NCCCNC(=O)O[C@@H]([C@@H]3OC(C(=O)O)=C[C@H](NC(=N)N)[C@H]3NC(C)=O)[C@H](O)CO)c2)[C@H](O)CO)OC(C(=O)O)=C[C@@H]1NC(=N)N tested on Influenza B/Harbin/7/95.
Result: 0.1
